Test system: OVCAR-8 ovarian
Assay: NCI-60 one-dose screen, 48 h
Conditions: 10 µM unless noted
The panel holds about 83,000 compounds, 20% with a hit somewhere; the sample as a whole holds those more often. Active and inactive are the calls of the source. How the source made its calls: active means growth percent below 10; inactive means the rest.
Would you mind answering with one of these outcomes? yes (1) (active), no (0) (inactive)

Solved cases (5 shown):
C=C1CC[C@@H]2[C@]3(C)COC(c4cn[nH]c4-c4ccc(OC)cc4)O[C@@H]3CC[C@@]2(C)[C@@H]1C/C=C1/C(=O)OCC1O (some centres undefined) = yes (1)
NC(=S)Nc1cccc(NC(N)=S)c1 = no (0)
COc1cc(C2CC(c3cc(OC)c(OC)c(OC)c3)=NN2c2ccccc2)ccc1OCc1ccc(C)cc1 (centres undefined) = no (0)
CCCS(=O)(=O)N1CCCC(C(=O)Nc2nc3ccc(NC(=O)c4ccc(F)c(OC)c4F)cc3s2)C1 (centres undefined) = no (0)
COc1ccc(C(=O)/C=C/c2ccc(OCc3ccccc3)c(OC)c2)cc1OC = yes (1)

Now for a further compound.
Challenge: Per the assay record, what outcome was assigned to COc1ccc(NC(=O)[C@@H](N)Cc2ccccc2)cc1C(=O)Nc1cccc(C2CC(=O)c3c(cc(OC)c(OC)c3OC)O2)c1 (some centres undefined) ?
Response given: no (0)

====

Tested on: COLO 205 colon
Assay: NCI-60 one-dose screen, 48 h
Conditions: 10 µM unless noted
Compounds without any hit were thinned out: in the full panel of roughly 83,000, 20% have a hit. Calls of active or inactive are those of the source. How the source made its calls: active means growth percent below 10; inactive means the rest.
Would you mind answering with one of these outcomes? active, inactive

Challenge: Per the assay record, what outcome was assigned to "Cc1ccc2c(N)c(C(=O)Nc3ccc(OC(F)(F)F)cc3)sc2n1" ?
Response given: inactive

====

Test system: HCT-116 colon
Test: NCI-60 one-dose screen, 48 h (100 = growth as untreated, 0 = no growth, -100 = all killed)
Conditions: 10 µM unless noted
Compounds without any hit were thinned out: in the full panel of roughly 83,000, 20% have a hit. Active and inactive are the calls of the source. The calls were made as follows: active = growth percent below 10; inactive = the rest.
measurement.kind: growth

Cc1occc1C(=O)NN1C(=O)/C(=C/C=C/c2ccc([N+](=O)[O-])o2)SC1=S = -73.2% (active)
CC(=O)Oc1ccccc1C(=O)[Se]C(=NC1CCCCC1)NC1CCCCC1 = -69.9% (active)
Clc1cccc(Cl)c1/C=C/c1cc(/C=C/c2ccc(Br)cc2)c2ccccc2n1 = 95.8% (inactive)
COCOc1cc2oc(C(=O)N[C@@H](Cc3ccccc3)C(O)C(=O)NCc3ccccc3)c(C)c(=O)c2cc1OCOC (some centres undefined) = -15.3% (active)
O=C(CCN1C(=O)/C(=C/c2ccc(F)cc2)SC1=S)N1CCOCC1 = 55.5% (inactive)
COc1c(F)ccc(C(=O)Nc2ccc3nc(NC(=O)C4CCCN(S(=O)(=O)c5ccc(C(F)(F)F)cc5)C4)sc3c2)c1F (centres undefined) = 63.4% (inactive)
O=C1CC(Sc2n[nH]c(-c3ccncc3)n2)C(=O)N1c1ccc(Br)cc1 (centres undefined) = 105% (inactive)
CCN1CCN(Cc2ccc(C(=O)Nc3cccc(C#Cc4cccc5[nH]nc(N)c45)c3)cc2C(F)(F)F)CC1 = -86.8% (active)

Challenge: Give the measured growth of "O=C1NC(=O)/C(=C/c2ccccc2OCc2cc3ccccc3nc2Cl)S1" .
Response given: 108% (inactive)

Challenge: Give the measured growth of CCCCCCCS(=O)(=O)N1CCCC(C(=O)Nc2nc3ccc(NC(=O)c4ccc(F)c(OC)c4F)cc3s2)C1 (centres undefined) .
Response given: 25.1% (inactive)

Challenge: Give the measured growth of "COc1ccc(C(=O)/C=C/c2ccc(OC)c(OCc3ccccc3)c2)cc1OC" .
Response given: 10.7% (inactive)

Challenge: Give the measured growth of COc1cc2c(c(OC)c1OC)C(=O)CC(c1cccc(NC(=O)c3cccc([N+](=O)[O-])c3)c1)O2 (centres undefined) .
Response given: 16.4% (inactive)

Challenge: Give the measured growth of "CCOC(=O)c1ccc(Nc2nc(NN)nc(-c3ccc(F)cc3)c2C#N)cc1" .
Response given: 102% (inactive)
